Overview of recorded Ratio IC50 for various molecules
Test system: V79
Test: Ratio of IC50 for Chinese hamster V79 cells to IC50 for Chinese hamster V79 cells transfected with Escherichia coli nitroreductase nfsB
Set-up: species or system Cricetulus griseus
endpoint label: Ratio IC50

>>> reported_measurement("C[C@H](OP(N)(=O)N(CCCl)CCCl)c1ccc([N+](=O)[O-])cc1 (stereo not given in full)")
32500
>>> reported_measurement("NP(=O)(OCc1ccc([N+](=O)[O-])cc1F)N(CCCl)CCCl (stereo not given)")
122750
>>> reported_measurement("NP(=O)(OCc1ccc([N+](=O)[O-])cc1C(F)(F)F)N(CCCl)CCCl (stereo not given)")
12500
>>> reported_measurement("NP(=O)(OCc1c(F)cc([N+](=O)[O-])cc1F)N(CCCl)CCCl (stereo not given)")
20880
>>> reported_measurement("COc1cc([N+](=O)[O-])ccc1COP(N)(=O)N(CCCl)CCCl (stereo not given)")
82000
>>> reported_measurement("NP(=O)(OCc1ccc([N+](=O)[O-])cc1)N(CCBr)CCBr (stereo not given)")
60000

----------
Overview of recorded Ratio IC50 for various molecules
Tested on: V79
Experiment: Ratio of IC50 for Chinese hamster V79 cells to IC50 for Chinese hamster V79 cells transfected with Escherichia coli nitroreductase nfsB
Parameters: species or system Cricetulus griseus
endpoint label: Ratio IC50

>>> reported_measurement("NP(=O)(OCc1ccc([N+](=O)[O-])cc1)N(CCCl)CCCl (centres undefined)")
73750
>>> reported_measurement("NP(=O)(OCc1ccc([N+](=O)[O-])cc1Cl)N(CCCl)CCCl (centres undefined)")
13100
>>> reported_measurement("COC(=O)c1cc(COP(N)(=O)N(CCCl)CCCl)ccc1[N+](=O)[O-] (centres undefined)")
690
>>> reported_measurement("NP(=O)(OCc1ccc([N+](=O)[O-])cn1)N(CCCl)CCCl (centres undefined)")
8333
>>> reported_measurement("C[C@@H](OP(N)(=O)N(CCCl)CCCl)c1ccc([N+](=O)[O-])cc1 (some centres undefined)")
28500
>>> reported_measurement("COc1cc(COP(N)(=O)N(CCCl)CCCl)ccc1[N+](=O)[O-] (centres undefined)")
16000
>>> reported_measurement("Cc1cc(COP(N)(=O)N(CCCl)CCCl)ccc1[N+](=O)[O-] (centres undefined)")
16000
>>> reported_measurement("NP(=O)(OCc1ccc([N+](=O)[O-])c(F)c1)N(CCCl)CCCl (centres undefined)")
16000

----------
Overview of recorded pIC50 for various compounds
Tested on: Trypanosoma brucei
Test: Trypanocidal activity against of Trypanosoma brucei bloodstream trypomastigote forms assessed as inhibition of parasite growth
Format: functional, organism-based
pIC50: −log10 of the molar value.
endpoint label: pIC50

>>> reported_measurement("COc1cc([N+](=O)[O-])ccc1COP(N)(=O)N(CCCl)CCCl (stereo not drawn)")
"< 5.00"
>>> reported_measurement("Cc1cc(COP(N)(=O)N(CCCl)CCCl)ccc1[N+](=O)[O-] (stereo not drawn)")
"< 5.00"
>>> reported_measurement("NP(=O)(OCc1ccc([N+](=O)[O-])cc1Cl)N(CCCl)CCCl (stereo not drawn)")
5.04
>>> reported_measurement("NP(=O)(OCc1ccc([N+](=O)[O-])cc1F)N(CCCl)CCCl (stereo not drawn)")
5.02
>>> reported_measurement("NP(=O)(OCc1ccc([N+](=O)[O-])c(F)c1)N(CCCl)CCCl (stereo not drawn)")
"< 5.00"
>>> reported_measurement("NP(=O)(OCc1ccc([N+](=O)[O-])cc1C(F)(F)F)N(CCCl)CCCl (stereo not drawn)")
5.10
>>> reported_measurement("COc1cc(COP(N)(=O)N(CCCl)CCCl)ccc1[N+](=O)[O-] (stereo not drawn)")
"< 5.00"
>>> reported_measurement("NP(=O)(OCc1cccc([N+](=O)[O-])c1)N(CCCl)CCCl (stereo not drawn)")
"< 5.00"
>>> reported_measurement("C[C@H](OP(N)(=O)N(CCCl)CCCl)c1ccc([N+](=O)[O-])cc1 (stereo partly drawn)")
"< 5.00"
>>> reported_measurement("C[C@@H](OP(N)(=O)N(CCCl)CCCl)c1ccc([N+](=O)[O-])cc1 (stereo partly drawn)")
"< 5.00"
>>> reported_measurement("NP(=O)(OCc1ccccc1[N+](=O)[O-])N(CCCl)CCCl (stereo not drawn)")
"< 5.00"
>>> reported_measurement("NP(=O)(OCc1c(F)cc([N+](=O)[O-])cc1F)N(CCCl)CCCl (stereo not drawn)")
6.00
>>> reported_measurement("NP(=O)(OCc1ccc([N+](=O)[O-])cc1)N(CCCl)CCCl (stereo not drawn)")
"< 5.00"

----------
Test system: SK-OV-3
Assay: Antiproliferative activity against human SKOV3 cells with mixed population of 25% NTR(+) cells and 75% NTR(-) cells assessed as reduction in cell number after 18 hrs
Type: functional, cell-based
Settings: SK-OV-3, 18 h
pIC50: −log10 of the molar value.
endpoint label: pIC50

>>> reported_measurement("NP(=O)(OCc1ccc([N+](=O)[O-])cc1Cl)N(CCCl)CCCl (stereo unspecified)")
6.27
>>> reported_measurement("NP(=O)(OCc1ccc([N+](=O)[O-])cc1)N(CCCl)CCCl (stereo unspecified)")
6.01
>>> reported_measurement("NP(=O)(OCc1ccc([N+](=O)[O-])cc1C(F)(F)F)N(CCCl)CCCl (stereo unspecified)")
6.00
>>> reported_measurement("NP(=O)(OCc1c(F)cc([N+](=O)[O-])cc1F)N(CCCl)CCCl (stereo unspecified)")
5.86
>>> reported_measurement("NP(=O)(OCc1ccc([N+](=O)[O-])cc1F)N(CCCl)CCCl (stereo unspecified)")
6.43
>>> reported_measurement("NP(=O)(OCc1ccc([N+](=O)[O-])c(F)c1)N(CCCl)CCCl (stereo unspecified)")
6.32

----------
Test system: SK-OV-3
Test: Antiproliferative activity against human SKOV3 cells after 18 hrs assessed as reduction in cell number
Format: functional, cell-based
Conditions: SK-OV-3, 18 h
pIC50: −log10 of the molar value.
Overview of recorded pIC50 for various compounds
endpoint label: pIC50

>>> reported_measurement("NP(=O)(OCc1c(F)cc([N+](=O)[O-])cc1F)N(CCCl)CCCl (configuration not stated)")
3.59
>>> reported_measurement("NP(=O)(OCc1ccc([N+](=O)[O-])cc1C(F)(F)F)N(CCCl)CCCl (configuration not stated)")
3.76
>>> reported_measurement("COC(=O)c1cc(COP(N)(=O)N(CCCl)CCCl)ccc1[N+](=O)[O-] (configuration not stated)")
3.36
>>> reported_measurement("NP(=O)(OCc1ccc([N+](=O)[O-])cc1Cl)N(CCCl)CCCl (configuration not stated)")
3.85
>>> reported_measurement("Cc1cc(COP(N)(=O)N(CCCl)CCCl)ccc1[N+](=O)[O-] (configuration not stated)")
3.32
>>> reported_measurement("NP(=O)(OCc1ccc([N+](=O)[O-])cc1)N(CCBr)CCBr (configuration not stated)")
2.96
>>> reported_measurement("NP(=O)(OCc1ccc([N+](=O)[O-])c(F)c1)N(CCCl)CCCl (configuration not stated)")
3.61
>>> reported_measurement("COc1cc(COP(N)(=O)N(CCCl)CCCl)ccc1[N+](=O)[O-] (configuration not stated)")
3.19
>>> reported_measurement("NP(=O)(OCc1ccc([N+](=O)[O-])cc1)N(CCCl)CCCl (configuration not stated)")
3.03
>>> reported_measurement("NP(=O)(OCc1ccc([N+](=O)[O-])cc1F)N(CCCl)CCCl (configuration not stated)")
3.58
>>> reported_measurement("NP(=O)(OCc1cccc([N+](=O)[O-])c1)N(CCCl)CCCl (configuration not stated)")
3.02

----------
System: Escherichia coli
Test: Activity of Escherichia coli nitroreductase nfsB assessed as NADH oxidation per mg of protein
endpoint label: Activity (nmol/min)

>>> reported_measurement("COC(=O)c1cc(COP(N)(=O)N(CCCl)CCCl)ccc1[N+](=O)[O-] (stereo not given)")
167
>>> reported_measurement("C[C@H](OP(N)(=O)N(CCCl)CCCl)c1ccc([N+](=O)[O-])cc1 (stereo not given in full)")
916
>>> reported_measurement("NP(=O)(OCc1cccc([N+](=O)[O-])c1)N(CCCl)CCCl (stereo not given)")
683
>>> reported_measurement("NP(=O)(OCc1ccc([N+](=O)[O-])cc1)N(CCCl)CCCl (stereo not given)")
1280
>>> reported_measurement("NP(=O)(OCc1ccccc1[N+](=O)[O-])N(CCCl)CCCl (stereo not given)")
256
>>> reported_measurement("C[C@@H](OP(N)(=O)N(CCCl)CCCl)c1ccc([N+](=O)[O-])cc1 (stereo not given in full)")
1400
>>> reported_measurement("COc1cc([N+](=O)[O-])ccc1COP(N)(=O)N(CCCl)CCCl (stereo not given)")
6980
>>> reported_measurement("NC(=O)c1cc(COP(N)(=O)N(CCCl)CCCl)ccc1[N+](=O)[O-] (stereo not given)")
211
>>> reported_measurement("COc1cc(COP(N)(=O)N(CCCl)CCCl)ccc1[N+](=O)[O-] (stereo not given)")
2440
>>> reported_measurement("Cc1cc(COP(N)(=O)N(CCCl)CCCl)ccc1[N+](=O)[O-] (stereo not given)")
894
